Measured values drawn from patent US20240252641A1 for this set.

target entity: T1, CD70 (UniProt P32970 39-193, limits assumed)
T1 construct: also called CD70 (100 nM)
T1 sequence (looked up): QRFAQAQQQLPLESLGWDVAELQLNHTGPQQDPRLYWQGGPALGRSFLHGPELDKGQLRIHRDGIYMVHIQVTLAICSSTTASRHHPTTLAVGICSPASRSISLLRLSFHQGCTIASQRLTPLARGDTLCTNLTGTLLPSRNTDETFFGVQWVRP
measurement protocol: Octet (BLI); hybridoma mAb, CD70 at 100 nM
Listed binders paired with reported Response
Would you mind answering with just the numeric figure?

binder	observation type	endpoint value
1E3 (1E3D9) (antibody, V domains shown, IgG in hybridoma supernatant) VH: QLQLQESGPGLVKPSETLSLTCTVSGASITSTSYYWNWIRQPPGKGLEWIGRISYSGSTYYNPSLKSRVTISVDTSKNQFSLKLSSVTATDTAVYYCARQIRYNWNPDTFDIWGQGTMVTVSS VL: EIVMTQSPATLSVSPGERATLSCRASQSLNSNLAWYQQKPAQAPRLLIYGASTRATGIPARFSGSGSGTEFTLTISSLQSEDFAVYYCQQYDNWPLTFGGGTKVEIK	Response	0.506
9A11 (9A11E8) (antibody, V domains shown, IgG in hybridoma supernatant) VH: QVQLVESGGGVVQPGRSLRLSCAASGFTFSNYGMYWVRQAPGKGLEWVAVIWYDGSKKYYGDSVKGRFTISRDNSKNTLYLQMNSLRAEDTAVYYCARDEDTVMASFDYWGQGTLVTVSS VL: DIQLTQSPSFLSASVGDRVTITCRASQDISIYLAWYQQKPGKAPQLLIYAASTLQSGVPSRFSGSGSGTEFTLTISSLQPEDFATYSCQQLNSYPITFGGGTKVEIK	Response	0.429

Let us examine a further case.
Requested read-out: Response. Entry: 4G7 (4G7E8) (antibody, V domains shown, IgG in hybridoma supernatant; The variable domains exist only inside scFv entries 1213/1214) VH: QVQLVESGGGVVQPGRSLRLSCAASGFTFSSYGLHWVRQAPGKGLDWVAVIWYDGSNKYYVDSVKGRFTISRDNSMNTLFLQMNSLRAEDTAVYYCARDEAAAAGAFDIWGQGTMVTVSS VL: DIQLTQSPSFLSASVGDRVTITCRASQGISSYLAWYQQKPGKAPKLLIYAASTLQSGVPSRFSGSGSGTEFTLTISSLQPEDFATYYCQQLNYYSITFGQGTRLEIK
0.357
